- test_name: NCI Yeast Anticancer Drug Screen. Data for the wt1 strain (AID 149);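 further: 0% = growth of vehicle-treated wt1 cultures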
- measurement_parameters: S. cerevisiae wt1 strain (SPY 50644) growth inhibition; at 11.0 µM; active compounds read high
This is part of a sample that, as a whole, favours compounds with a hit. Of some 79,000 tested, about 15% had one in any assay.
assay_readout: growth inhibition (%)
Numbers only, in %.

Please review the entries below; each comes with its answer.
| compound | measurement_unit | growth inhibition |
| --- | --- | --- |
| CCC1(O)C(=O)OCc2c1cc1n(c2=O)Cc2cc3c(N)cccc3nc2-1 (stereo not given) | % | -26 |
| ClCCCOc1c(Cl)cc(Cl)cc1Cl | % | -3 |
| CC(=O)CCC1=C(C)C(=O)C(=O)C(C)=C1O | % | -3 |
| O=C(O)c1ccccc1C(=O)OC1CCc2ccccc2C1 (stereo not given) | % | -80 |

Could you report growth inhibition for every entry in the following list?
1. CCOC(=O)C(Cc1c2ccccc2cc2ccccc12)(NC(C)=O)C(=O)OCC
2. CCCCCCCCCCCNC=O
3. CC(C)(N=Nc1ccc(Cl)cc1)[N+](=O)[O-]
4. O=S(=O)(c1ccccc1)N1CN2CN(C1)CN(S(=O)(=O)c1ccccc1)C2
5. Cc1ccc(Nc2n[nH]c(=S)s2)c(C)c1
6. N#CCC(=O)N/N=C(\c1ccccc1)C(c1ccccc1)C1(O)C(=O)Nc2c(Cl)ccc(Cl)c21 (stereo not given)
7. Cc1oc2ccccc2c(=O)c1Cn1nnc2ccccc21

Result:
-2
-9
68
17
-10
0
-2

Can you give me growth inhibition for all of these, one by one?
1. Nc1ccc2cc(Br)ccc2c1Br
2. COc1c2c(c3c(c1CCC(=O)O)OC(C)(C)C=C3)OC(C)(C)C=C2

Result:
1. -3
2. 13

// each listed compound needs a value for growth inhibition
1. O=C1C(=O)N(c2ccccc2)[C@@]2(c3ccccc3)C(=Nc3ccccc3)OC(c3ccccc3)=C12
2. Brc1ccc(B2Nc3ccccc3N2)cc1

Result:
-1
16

###

- test_name: NCI Yeast Anticancer Drug Screen. Data for the sgs1 mgt1 strain (AID 161);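 further: 0% = growth of cultures given vehicle only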
- measurement_parameters: S. cerevisiae sgs1 mgt1 strain, at 50.0 µM (retest, dose inferred, filed as 5.0), active compounds read high
The panel holds about 79,000 compounds, 15% with a hit somewhere; the sample as a whole holds those more often. Calls of active or inactive are those of the source. No stated cut-off is given here; in the data, active means growth inhibition above about 70%; inactive means the rest.
Please go through the items and note down their growth inhibition.

# batch size: 5; output growth inhibition per entry
1. COc1ccc2nc(CCc3ccccc3)ccc2c1
2. O=C(CCCN1CCC(Nc2ccc(F)cc2)(c2nnnn2C2CCCCC2)CC1)c1ccc(F)cc1
3. N#CSCC1COc2ccccc2O1 (configuration not stated)
4. O=C(O)c1ccc2cc(Cl)c3ccccc3c2c1
5. O=C1/C(=C/c2ccc(Cl)c(Cl)c2)CNC/C1=C\c1ccc(Cl)c(Cl)c1

Result:
1. 87% (active)
2. 31% (inactive)
3. 26% (inactive)
4. 93% (active)
5. 66% (inactive)

###

- test_name: NCI Yeast Anticancer Drug Screen. Data for the cln2 rad14 strain (AID 165);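 further: 0% = growth equal to vehicle treated cultures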
- measurement_parameters: S. cerevisiae cln2 rad14 strain, at 50.0 µM (retest, dose inferred, filed as 5.0), active compounds read high
- Experimental: Growth inhibition of yeast strains with defined genetic alterations is measured as a screen for potential anti-cancer activity. Selected strains with alterations in DNA damage repair or cell cycle control were exposed to compounds and growth inhibition was measured relative to vehicle treated controls. The strain used in this assay is cln2 rad14
This is part of a sample that, as a whole, favours compounds with a hit. Of some 79,000 tested, about 15% had one in any assay.
# cutoff 60% applies to growth inhibition; >= gives 1, < gives -1

Please review the following examples before continuing.
| compound | group |
| --- | --- |
| O=[N+]([O-])c1cccc2nc3ccccc3c(NCCCN3CCCCC3)c12 | 1 |
| CCCCCCCN(CCCCCCC)CC(=O)c1ccc2cc(Cl)c3ccccc3c2c1 | 1 |
| O=S(=O)(c1cccc(C(F)(F)F)c1)N1c2ccccc2-n2cccc2C1c1cccnc1 (stereo not given) | 1 |
| O=C(Cc1ccccc1)NN1C(=O)C(Cl)C1c1cc(Br)cc(Br)c1O (stereo not given) | 1 |

Query: Reported growth inhibition reaches at least 60% for CSc1nc(-c2ccccc2)nc(=[N+]2CCOCC2)s1 ?
Result: -1

Query: Quick check: does CCCCCCCCCCCCCCCCCCN(C)C(COC)COP(=O)([O-])OCC[N+](C)(C)C (stereo not given) have growth inhibition greater than or equal to 60%?
Result: -1

Query: Hi, just wondering whether O=C1CC(C(O)(C(F)(F)F)C(F)(F)Cl)CCC1C(O)(C(F)(F)F)C(F)(F)Cl (stereo not given) shows growth inhibition of 60% or higher.
Result: 1

Query: Determine whether this compound has growth inhibition no lower than 60%: O=C1C(=O)N(c2ccccc2)[C@@]2(c3ccccc3)C(=Nc3ccccc3)OC(c3ccccc3)=C12
Result: -1

Query: State whether the measured growth inhibition reaches 60%, counting equality as reaching it, for Nc1ccc(/C=C/c2ccc3cccnc3c2)cc1
Result: -1

Query: growth inhibition >= 60% for Cc1cc(Cl)ccc1NC(=O)/C(Cl)=C(/Cl)C(=O)O ?
Result: -1

Query: Entry CCC[CH2][Ge]([CH2]CCC)([CH2]CCC)[O]C(=O)C(O)c1ccccc1 (stereo not given) : is its growth inhibition no less than 60%?
Result: -1

Query: Entry Cc1c(C(=O)/C=C/c2ccccc2[N+](=O)[O-])[n+](=O)c2ccccc2n1[O-] : is its growth inhibition no less than 60%?
Result: -1

Query: Test whether the compound C[n+]1c(-c2ccc(/C=N/NC(=O)c3ccc(C(=O)N/N=C/c4ccc(-c5cn6ccccc6[n+]5C)cc4)cc3)cc2)cn2ccccc21 records growth inhibition of 60% or higher.
Result: 1

Query: API: above_or_equal(metric=growth inhibition, cutoff=60%) for item CCCCCCCCCCCCCCN
Result: 1

Query: Answer whether growth inhibition of CN(N=O)C(=O)Nc1ccc(C(=O)O)cc1 is greater than or equal to 60%.
Result: -1

Query: # check: growth inhibition of NC(N)=NS(=O)(=O)c1ccc(Nc2c3ccccc3nc3c(C(=O)NC(CO)(CO)CO)cccc23)cc1 is greater than or equal to 60%
Result: -1

Query: Reported growth inhibition reaches at least 60% for CC(C)(N=Nc1ccc(Cl)cc1)[N+](=O)[O-] ?
Result: 1

Query: Can O=C(O)c1ccc2cc(Cl)c3ccccc3c2c1 be said to have growth inhibition at or above 60%?
Result: 1

Query: Is reported growth inhibition greater than or equal to 60% here: CCCC/C=C1\CCC(CN2CCCC2)C1=O (stereo not given)
Result: -1

Just for reference, PubChem BioAssay (NCI) is where these values come from.
